- target: MELK (Homo sapiens, UniProt Q14680)
- Sequence (Q14680 whole entry, looked up): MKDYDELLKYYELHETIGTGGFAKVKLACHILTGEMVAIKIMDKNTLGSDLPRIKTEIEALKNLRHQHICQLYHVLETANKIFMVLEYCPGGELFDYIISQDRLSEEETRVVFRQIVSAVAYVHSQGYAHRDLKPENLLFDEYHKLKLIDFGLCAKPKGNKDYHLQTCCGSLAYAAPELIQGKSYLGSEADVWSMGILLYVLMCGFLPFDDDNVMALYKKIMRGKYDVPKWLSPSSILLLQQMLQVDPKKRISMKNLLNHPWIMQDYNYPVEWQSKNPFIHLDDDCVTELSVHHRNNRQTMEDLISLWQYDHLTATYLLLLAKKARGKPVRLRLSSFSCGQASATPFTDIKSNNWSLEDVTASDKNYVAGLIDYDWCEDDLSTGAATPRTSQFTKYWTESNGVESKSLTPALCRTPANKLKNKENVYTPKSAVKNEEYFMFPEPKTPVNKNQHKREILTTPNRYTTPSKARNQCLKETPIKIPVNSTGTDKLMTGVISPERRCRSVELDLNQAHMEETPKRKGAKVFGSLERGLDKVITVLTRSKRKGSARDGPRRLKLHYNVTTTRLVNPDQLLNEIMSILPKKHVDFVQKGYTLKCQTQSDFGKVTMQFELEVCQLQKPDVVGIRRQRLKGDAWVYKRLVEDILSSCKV
- experiment-summary: Kinase assay: MELK activity, phosphorylation of FITC-labeled histone H3 peptide measured by IMAP fluorescence polarization
- Format: biochemical
- conditions-used: MELK kinase assay, IMAP fluorescence polarization, 50 micro-M ATP; read-out: IC50 (μM) (kinase assay)
Reported IC50 values for the following compounds.
readout: IC50 (µM)

compound=CC(=O)c1cnc2ccc(-c3cc(Cl)c(O)c(Cl)c3)cc2c1N[C@H]1CC[C@H](NC(=O)[C@@H]2CCCN2)CC1 target="MELK (Homo sapiens, UniProt Q14680)" readout=IC50 unit_text=µM result=0.0019
compound=CN1CCN(CCc2cccc(Nc3c(C(=O)C4CC4)cnc4ccc(-c5cc(Cl)c(O)c(Cl)c5)cc34)c2)CC1 target="MELK (Homo sapiens, UniProt Q14680)" readout=IC50 unit_text=µM result=0.0051
compound=CN1CCN(c2ccc(Nc3c(C(=O)C4CC4)cnc4cc(C(F)(F)F)c(-c5cc(F)c(O)c(Cl)c5)cc34)cn2)CC1 target="MELK (Homo sapiens, UniProt Q14680)" readout=IC50 unit_text=µM result=3.1
compound="CC(=O)c1cnc2ccc(-c3cc(Cl)c(O)c(Cl)c3)cc2c1N[C@H]1CC[C@H](NC(=O)C(N)C(C)C)CC1 (stereo partly shown)" target="MELK (Homo sapiens, UniProt Q14680)" readout=IC50 unit_text=µM result=0.0031

---

Reported log10(IC50) values for the following compounds.
- Tested on: 22Rv1 cells
- experiment-summary: Cell-based assay: anti-proliferative activity, Cell Counting Kit-8, 72 hours (22Rv1)
- conditions-used: Homo sapiens
Where a name gives a salt, the structure may show the parent alone.
readout: log10(IC50) (log10 of the value in µM)

compound="CC(=O)c1cnc2ccc(-c3cc(Cl)c(O)c(Cl)c3)cc2c1N[C@H]1CC[C@H](C(=O)NCCN(C)C)CC1 [Example 892, hydrochloride]" readout=log10(IC50) result=0.04
compound="CN1CCC(n2cc(Nc3c(S(C)(=O)=O)cnc4ccc(-c5cc(Cl)c(O)c(Cl)c5)cc34)cn2)CC1 [Example 899, hydrochloride]" readout=log10(IC50) result=0.18
compound="CC(=O)c1cnc2ccc(-c3cc(F)c(O)c(Cl)c3)cc2c1N[C@H]1CC[C@H](NC(=O)C2CCCN2C)CC1 (stereo partly drawn) [Example 874, hydrochloride]" readout=log10(IC50) result=-0.74
compound="CC(=O)c1cnc2cc(F)c(-c3cc(Cl)c(O)c(Cl)c3)cc2c1N[C@H]1CC[C@H](CN2CCCC2)CC1 [Example 923, hydrochloride]" readout=log10(IC50) result=-0.54
compound="CC(=O)c1cnc2ccc(-c3cc(F)c(O)c(Cl)c3)cc2c1Nc1cncc(CCN2CCCC2)c1 [Example 880, hydrochloride]" readout=log10(IC50) result=0.87
compound="CS(=O)(=O)c1cnc2ccc(-c3cc(F)c(O)c(Cl)c3)cc2c1N[C@H]1CC[C@H](CN2CCCC2)CC1 [Example 891, hydrochloride]" readout=log10(IC50) result=-0.04
compound="COc1cc(-c2ccc3ncc(C(=O)C4CCCC4)c(N[C@H]4CC[C@H](CN(C)C)CC4)c3c2)cc(Cl)c1O [Example 916, hydrochloride]" readout=log10(IC50) result=0.18
compound="CC(=O)c1cnc2ccc(-c3cc(F)c(O)c(Cl)c3)cc2c1N[C@H]1CC[C@H](NC(=O)C(N)C(C)C)CC1 (stereo partly drawn) [Example 907]" readout=log10(IC50) result=-1.23
compound="CCN(CC)CCO[C@H]1CC[C@H](Nc2c(C(C)=O)cnc3ccc(-c4cc(F)c(O)c(Cl)c4)cc23)CC1 [Example 869, hydrochloride]" readout=log10(IC50) result=-0.49
compound="CC(=O)c1cnc2ccc(-c3cc(Cl)c(O)c(Cl)c3)cc2c1N[C@H]1CC[C@H](NC(=O)C2CCCN2C)CC1 (stereo partly drawn) [Example 875, hydrochloride]" readout=log10(IC50) result=-0.54
compound="CS(=O)(=O)c1cnc2ccc(-c3cc(F)c(O)c(Cl)c3)cc2c1Nc1cccc(CCN2CCCC2)c1 [Example 879, hydrochloride]" readout=log10(IC50) result=0.48
compound="CN1CCC(n2cc(Nc3c(S(C)(=O)=O)cnc4ccc(-c5cc(F)c(O)c(Cl)c5)cc34)cn2)CC1 [Example 900, hydrochloride]" readout=log10(IC50) result=0.49
compound="CN(C)C[C@H]1CC[C@H](Nc2c(C(=O)C3CCCC3)cnc3ccc(-c4cc(Cl)c(O)c(Cl)c4)cc23)CC1 [Example 917, hydrochloride]" readout=log10(IC50) result=-0.04
compound="CC(=O)c1cnc2ccc(-c3cc(F)c(O)c(Cl)c3)cc2c1N[C@H]1CC[C@H](NC(=O)CN(C)C)CC1 [Example 876]" readout=log10(IC50) result=-0.85
compound="CN(C)C1CCN(c2ccc(Nc3c(S(C)(=O)=O)cnc4ccc(-c5cc(Cl)c(O)c(Cl)c5)cc34)cn2)C1 (stereo not drawn) [Example 906, hydrochloride]" readout=log10(IC50) result=0.30
compound="CC(=O)c1cnc2ccc(-c3cc(F)c(O)c(Cl)c3)cc2c1N[C@H]1CC[C@H](NC(=O)[C@@H](N)C(C)(C)C)CC1 [Example 914, hydrochloride]" readout=log10(IC50) result=-0.55
compound="CC(=O)c1cnc2ccc(-c3cc(Cl)c(O)c(Cl)c3)cc2c1N[C@H]1CC[C@H](NC(=O)CN(C)C)CC1 [Example 877, hydrochloride]" readout=log10(IC50) result=-0.74
compound="CC(=O)c1cnc2cc(F)c(-c3cc(F)c(O)c(Cl)c3)cc2c1N[C@H]1CC[C@H](CN(C)C)CC1 [Example 904, hydrochloride]" readout=log10(IC50) result=-0.48

---

Reported IC50 values for the following compounds.
- target: UniProtKB Q14680
- experiment-summary: Kinase assay: MELK activity, phosphorylation of FITC-labeled histone H3 peptide measured by IMAP fluorescence polarization
- Type: biochemical
- conditions-used: 50 micro-M ATP, FITC-labeled histone H3 peptide substrate, IMAP fluorescence polarization; read-out: IC50 (μM) (kinase assay)
readout: IC50 (µM)

compound=COc1cc(-c2ccc3ncc(C(=O)C4CC4)c(-c4ccc(CN(C)C)cc4)c3c2)cc(Cl)c1O unit_text=µM result=0.0042
compound=COc1cc(-c2ccc3ncc(C(=O)C4CC4)c(NCC(=O)N4CCN(C)CC4)c3c2)cc(Cl)c1O unit_text=µM result=1
compound="CCN(CC)C1CCC(Nc2c(C(=O)C3CC3)cnc3ccc(-c4ccc(O)c(OC)c4)cc23)CC1 (stereo not shown)" unit_text=µM result=0.007
compound=CCOc1cc(-c2ccc3ncc(C(=O)C4CC4)c(N4CCC(CN(C)C)CC4)c3c2)ccc1O unit_text=µM result=0.0017
compound=O=C(c1cnc2ccc(-c3ccc(O)c(Cl)c3)cc2c1N[C@H]1CC[C@H](N2CCCC2)CC1)C1CC1 unit_text=µM result=0.0046
compound=CS(=O)(=O)c1cnc2ccc(-c3ccc(O)c(Cl)c3)cc2c1N1CCC(CN2CCCC2)CC1 unit_text=µM result=0.009
compound="CCN(CC)C1CCC(Nc2c(C(=O)C3CC3)cnc3ccc(-c4ccc(O)c(Cl)c4)cc23)CC1 (stereo not shown)" unit_text=µM result=0.011

---

- target: MELK (Homo sapiens, UniProt Q14680)
- experiment-summary: Kinase assay: MELK activity, phosphorylation of FITC-labeled histone H3 peptide measured by IMAP fluorescence polarization
- Assay type: biochemical
- conditions-used: read-out: IC50 (μM) (kinase assay)
Reported IC50 values for the following molecules.
readout: IC50 (µM)

molecule="COc1cc(-c2ccc3ncc(C(=O)C4CC4)c(Nc4ccc(N)nc4)c3c2)cc(Cl)c1O [Example 589]" target="MELK (Homo sapiens, UniProt Q14680)" readout=IC50 result=0.011
molecule="N[C@H]1CC[C@H](Nc2c(C(=O)C3CC3)cnc3c(F)cc(-c4cc(F)c(O)c(Cl)c4)cc23)CC1 [Example 555]" target="MELK (Homo sapiens, UniProt Q14680)" readout=IC50 result=5.1
molecule="CCCC(=O)c1cnc2ccc(-c3cc(Cl)c(O)c(OC)c3)cc2c1Nc1ccc(N2CCNCC2)nc1 [Example 617]" target="MELK (Homo sapiens, UniProt Q14680)" readout=IC50 result=0.0042
molecule="O=C(c1cnc2ccc(-c3cc(F)c(O)c(Cl)c3)cc2c1Nc1ccc(N2CCC(O)C2)nc1)C1CC1 (stereo not shown) [Example 671]" target="MELK (Homo sapiens, UniProt Q14680)" readout=IC50 result=0.025

---

- System: HT-1197 cells
- experiment-summary: Cell-based assay: anti-proliferative activity, Cell Counting Kit-8, 72 hours (HT-1197, negative control without MELK expression)
- conditions-used: Homo sapiens, HT1197, 72 h, HT1197 cells (negative control), 72 hours
Counter-ions that a name gives are not always drawn.
readout: IC50 (µM)

compound="CC(=O)c1cnc2ccc(-c3cn[nH]c3)cc2c1N[C@H]1CC[C@H](CN(C)C)CC1 [Example 912, hydrochloride]" readout=IC50 result=3
compound="CC(=O)c1cnc2ccc(-c3cc(Cl)c(O)c(Cl)c3)cc2c1Nc1cncc(CCN2CCCC2)c1 [Example 873, hydrochloride]" readout=IC50 result=100
compound="CN(C)CCc1ccc(Nc2c(C(=O)C3CC3)cnc3ccc(-c4cc(F)c(O)c(Cl)c4)cc23)cc1 [Example 615]" readout=IC50 result=1.4
compound="CCCC(=O)c1cnc2ccc(-c3cc(Cl)c(O)c(OC)c3)cc2c1N[C@H]1CC[C@H](CN(C)C)CC1 [Example 607]" readout=IC50 result=3.4
compound="CC(=O)c1cnc2cc(F)c(-c3cc(Cl)c(O)c(Cl)c3)cc2c1N[C@H]1CC[C@H](CN2CCCC2)CC1 [Example 923, hydrochloride]" readout=IC50 result=2.5
compound="CN1CCC(n2cc(Nc3c(C(=O)C(C)(C)C)cnc4ccc(-c5cc(F)c(O)c(Cl)c5)cc34)cn2)CC1 [Example 930, hydrochloride]" readout=IC50 result=14
compound="CC(=O)c1cnc2ccc(-c3cc(F)c(O)c(Cl)c3)cc2c1N[C@H]1CC[C@H](C(=O)NCCN(C)C)CC1 [Example 893, hydrochloride]" readout=IC50 result=100
